# TEST_NAME: Terminal half life in Sprague-Dawley rat at 10 mg/kg, po by LC-MS/MS analysis
# Type: ADME, organism-based
# Parameters: dose 10 mg/kg, route oral
# CONDITION_LABEL: in vivo, read-out: beta t1/2 (converted)
ASSAY_READOUT: half-life (h)
Give the number; h is assumed, so skip it.

The recorded half-life for O=C(/C=C/c1cccn(Cc2ccc3ccccc3n2)c1=O)NO is 10.3

###

# TEST_NAME: Growth inhibition of human HCT15 cells after 5 days by sulforhodamine B assay
# Type: functional
# CONDITION_LABEL: HCT-15, 120 h
Decide using GI50 alone. Strictly below 2 µM: Fulfilled. Equal to or above 2 µM: Not fulfilled.

Previously resolved entries follow.
O=C(/C=C/c1cccn(CCc2ccc(Br)cc2)c1=O)NO = Not fulfilled
O=C(/C=C/c1cccn(CCCc2cccc(Br)c2)c1=O)NO = Fulfilled
O=C(/C=C/c1cccn(CCCc2ccc(Br)cc2)c1=O)NO = Not fulfilled

INPUT: Please indicate whether the reported GI50 of O=C(/C=C/c1cccn(Cc2ccccn2)c1=O)NO is strictly below 2 µM.
OUTPUT: Not fulfilled

INPUT: Please indicate whether the reported GI50 of O=C(/C=C/c1cccn(CCc2ccccn2)c1=O)NO is strictly below 2 µM.
OUTPUT: Not fulfilled

INPUT: Please indicate whether the reported GI50 of O=C(/C=C/c1cccn(Cc2ccc3ccccc3n2)c1=O)NO is strictly below 2 µM.
OUTPUT: Fulfilled

INPUT: Please indicate whether the reported GI50 of O=C(/C=C/c1cccn(Cc2cccnc2)c1=O)NO is strictly below 2 µM.
OUTPUT: Not fulfilled

INPUT: Please indicate whether the reported GI50 of CCc1ccc(CCn2cccc(/C=C/C(=O)NO)c2=O)cc1 is strictly below 2 µM.
OUTPUT: Fulfilled

INPUT: Please indicate whether the reported GI50 of CCc1ccc(CCCn2cccc(/C=C/C(=O)NO)c2=O)cc1 is strictly below 2 µM.
OUTPUT: Fulfilled

INPUT: Please indicate whether the reported GI50 of O=C(/C=C/c1cccn(CCCc2cccnc2)c1=O)NO is strictly below 2 µM.
OUTPUT: Not fulfilled

INPUT: Please indicate whether the reported GI50 of CCOc1ccc(CCn2cccc(/C=C/C(=O)NO)c2=O)cc1 is strictly below 2 µM.
OUTPUT: Fulfilled

INPUT: Please indicate whether the reported GI50 of COc1cccc(CCn2cccc(/C=C/C(=O)NO)c2=O)c1 is strictly below 2 µM.
OUTPUT: Not fulfilled

INPUT: Please indicate whether the reported GI50 of CC(C)(C)c1ccc(Cn2cccc(/C=C/C(=O)NO)c2=O)cc1 is strictly below 2 µM.
OUTPUT: Not fulfilled

The reported measurements were obtained from ChEMBL document CHEMBL3425447.
